Where do the numbers come from? From the supplement of paper PMC6089552.

Tested on: A673/TR/shEF
Test: cell viability (LOESS-normalised, relative to median of negative controls) (log2 ratio); higher = more viable cells (less compound effect), active = hit call of the paper (over 3 MAD below the median)
Conditions: 0.25 µM; library screen: screen1; EWS-FLI1 expression: high (no doxycycline); treatment time: 72 h
Screen size: about 3,200 compounds; about 300 (9.4%) showed activity. Only a selection was taken, and actives are over-represented in it overall.
ASSAY METRIC: cell viability (log2)
Please reply with the value in numeric form only.

COMPOUND	cell viability (log2)
O=C1C=C2C(=CCOC2O)O1 (centres undefined)	-0.259
C=C1C2CC[C@@]3(C)[C@H](c4ccoc4)OC(=O)C[C@]13O[C@H]1CC(=O)C(C)(C)[C@H](C(OC(C)=O)C(=O)OC)[C@@]21C (some centres undefined)	0.0428
CC(=O)O[C@H]1C[C@@H](OC(C)=O)C(C)(C)C2C[C@@H](OC(C)=O)[C@]3(C)C(CC[C@@]4(C)[C@H](c5ccoc5)C[C@H]5O[C@]543)[C@]21C (some centres undefined)	0.134
CCOC(=O)CC(SP(=S)(OC)OC)C(=O)OCC (centres undefined)	0.0518
C[C@H]1C[C@@H](O)[C@]2(O)[C@@]13CC(=O)OC[C@@]2(C)[C@](C)(O)C(=O)C3	0.0914
COC[C@H]1OC(=O)c2coc3c2[C@@]1(C)C1=C(C3=O)[C@@H]2CCC(=O)[C@@]2(C)C[C@H]1OC(C)=O	0.137

Item: O.O=C1OC2(c3cc(Br)c([O-])cc3Oc3c2cc(Br)c([O-])[c]3[Hg])c2ccccc21.[Na+].[Na+] (centres undefined) | cell viability (log2): 0.113

Item: C[C@@H]1C[C@@H]([C@H](O)CC2CC(=O)NC(=O)C2)C(=O)[C@@H](C)C1 | cell viability (log2): 0.141

Item: N#Cc1c(Cl)cccc1Cl | cell viability (log2): 0.126

Item: CC(=O)C1=C(O)[C@@H]2[C@H]3c4c[nH]c5cccc(c45)C[C@H]3C(C)(C)N2C1=O | cell viability (log2): 0.0498

Item: C[C@@H]1C[C@H]2CC(=O)[C@H]3CCCN4CCC[C@H]2[C@]34C1 | cell viability (log2): 0.103

Item: C[C@@H]1O[C@@H](O[C@H]2CC[C@]3(C=O)[C@H]4CC[C@]5(C)[C@@H](C6=CC(=O)OC6)CC[C@]5(O)[C@@H]4CC[C@]3(O)C2)[C@H](O)[C@H](O)[C@H]1O | cell viability (log2): 0.0221

Item: CN1C(=O)CN=C(c2ccccc2)c2cc(Cl)ccc21 | cell viability (log2): 0.0871

Item: CCCCN(CC)c1c([N+](=O)[O-])cc(C(F)(F)F)cc1[N+](=O)[O-] | cell viability (log2): 0.116

Item: COc1ccccc1N1CCNCC1 | cell viability (log2): 0.0547

Item: C=CCC1(C(C)CCC)C(=O)NC(=S)NC1=O (centres undefined) | cell viability (log2): 0.103

Item: CC(C)N1C(=O)c2ccccc2NS1(=O)=O | cell viability (log2): 0.113

Item: Clc1ccc(Cl)cc1 | cell viability (log2): 0.0995

Item: C[N+]1=Cc2cc3c(cc2CC1)OCO3 | cell viability (log2): 0.0752
